Provide the reported protein stability index of each item.
B1: FEM1A (parent)
chain: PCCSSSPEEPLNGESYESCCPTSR

# Variants of: B1
# assay details: protein stability index of a GFP-peptide fusion (GPS, HEK-293T) (PSI 1-6); higher = more stable;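 further: lentivirally expressed fusions sorted by FACS into six bins by GFP to DsRed ratio, PSI derived from sequencing read proportions per bin multiplied by bin number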
# measurement setup: c terminus: a fixed tail appended
Number only, no unit.

# protein stability index (variant: C20L ) is 3.7

# protein stability index (variant: S5A ) is 3.49

# protein stability index (variant: T22G ) is 3.53

# protein stability index (variant: P21M ) is 2.28

# protein stability index (variant: S4V ) is 4.1

# protein stability index (variant: E9V ) is 3.08

# protein stability index (variant: E14G ) is 2.24

# protein stability index (variant: E17I ) is 2.83

# protein stability index (variant: G13R ) is 3.96

# protein stability index (variant: N12L ) is 4.04

# protein stability index (variant: P7K ) is 3.65

# protein stability index (variant: S4L ) is 2.98

# protein stability index (variant: S6N ) is 3.81

# protein stability index (variant: C3I ) is 4.19

# protein stability index (variant: L11W ) is 2.82

# protein stability index (variant: S18Y ) is 3.07

Data provenance is the supplement of paper PMC10567573.
